What Soluble 60-mer huBAFF (4.2 pM) Neutralization IC90 was measured for each of the following?
Target: Recombinant soluble 60-mer human BAFF (His-HuBAFF 134-285) (human, UniProt Q9Y275 134-285)
Assay: cell-based or functional assay

-- ask Tell me the measured Soluble 60-mer huBAFF (4.2 pM) Neutralization IC90 of 250E5A11 (antibody, V domains shown, Mouse lead antibody (hybridoma)) VH: QVQLQQPGTELVKPGASVKLSCKASGYTFSIFCIHWVQQRPGRGLEWIGRIDPSSGGTKYNERFENKATLTVDKSSSTAYMQLSSLTFEDSAVYYCARGEDLLVRTDAMDYWGQGTSVTVSS VL: DIVMTQSQKFMSTTVGDRVSITCKASQNAGAAVAWFQQKPGQSPKLLIYSASNRYTGVPDRFTGSGSGTDFTLTITNVQSEDLADYICQQYRSFPRTFGGGTKLEIK , please.
-- reply 0.3 pM

-- ask Then what about the binder 217H12A7 (antibody, V domains shown, Mouse lead antibody (hybridoma)) VH: QVQLQQPGAELVKPGASVKLSCKASGYTFSTFLIHWVQQRPGRGLEWIGRIDPNSGGTKYNEKFERKVTLTVDKPSSTAYMQLSSLTSEDSAVYYCARGEDLLLRTDAMDYWGQGTSVTVSS VL: DIVMTQSQKFMSTTVGDRVSITCKASQNAGTAVAWFQQKPGQSPKLLIYSAFNRYTGVPDRFTGSGSGTDFTLTISNMQSEDLADYICQQYRSYPRTFGGGTKLEIK ?
-- reply 13.4 pM

-- ask Moving on to 206G9A10 (antibody, V domains shown, Mouse lead antibody (hybridoma)) VH: QVQLQQPGAELVKPGASVKLSCKASGYTFSIFCIHWVQQRPGRGLEWIGRIDPSSGGTKYNEKFESKATLTVDKSSSTAYMQLSSLTSEDSAVYYCARGEDLLVRTDAMDYWGQGTSVTVSS VL: DIVMTQSQKFMSTTVGDRVSITCKASQNAGAAVAWFQQKPGQSPKLLIYSASNRYTGVPDRFTGSGSGTDFTLTISNVQSEDLADYICQQYRSYPRTFGGGTKLEIK
-- reply 0.2 pM
